# protocol.summary: Steady state fluorescence spectra and quantum yield
# Format: physicochemical
# experimental.conditions: in complex with biliverdin, red excitation
Ex/Em1, emission by entry:
Don't forget the unit after the number, please.

Previously resolved entries follow.
SFP-FH88insGG: L135E monoSFP extended with glycine residues at position 88, SEQ ID NO:5 (protein) MFIKPGRCPKPAVQEDFDAARYLGVWYDIQRLPNKFQKGECATATYSLSPGVGFSVFNRERLANGTIKSVIGSAIAEDPCEPAKLQFGGFHENAAPVPYWVLSTDYDNYALVYSCINEGASHAAYASIVSRQPTLPEETIKKLQGTMSSFGVGVDTLLTTNQDAAYCSAMNQ :: 653 nm
SFP-V71E: monomeric SFP variant V71E, SEQ ID NO:2 (protein) FIKPGRCPKPAVQEDFDAARYLGVWYDIQRLPNKFQKGECATATYSLSPGEGFSVFNRERLANGTIKSVIGSAIAEDPCEPAKLQFFHENAAPVPYWVLSTDYDNYALVYSCINLGASHAAYASIVSRQPTLPEETIKKLQGTMSSFGVGVDTLLTTNQDAAYCSAMNQ :: 660 nm

Shifting focus to the molecule that follows.
# return recorded Ex/Em1, emission for entry SFP-VP95insGG: L135E monoSFP extended with glycine residues at position 95, SEQ ID NO:6 (protein) MFIKPGRCPKPAVQEDFDAARYLGVWYDIQRLPNKFQKGECATATYSLSPGVGFSVFNRERLANGTIKSVIGSAIAEDPCEPAKLQFFHENAAPGGVPYWVLSTDYDNYALVYSCINSFEGASHAAYASIVSRQPTLPEETIKKLQGTMSSFGVGVDTLLTTNQDAAYCSAMNQ
653 nm
